System: human D4 receptor (D4.2 sub-type) (Homo sapiens, UniProt P21917, DEL271-302)
Sequence (P21917 with tags, fused parts or gaps DEL271-302): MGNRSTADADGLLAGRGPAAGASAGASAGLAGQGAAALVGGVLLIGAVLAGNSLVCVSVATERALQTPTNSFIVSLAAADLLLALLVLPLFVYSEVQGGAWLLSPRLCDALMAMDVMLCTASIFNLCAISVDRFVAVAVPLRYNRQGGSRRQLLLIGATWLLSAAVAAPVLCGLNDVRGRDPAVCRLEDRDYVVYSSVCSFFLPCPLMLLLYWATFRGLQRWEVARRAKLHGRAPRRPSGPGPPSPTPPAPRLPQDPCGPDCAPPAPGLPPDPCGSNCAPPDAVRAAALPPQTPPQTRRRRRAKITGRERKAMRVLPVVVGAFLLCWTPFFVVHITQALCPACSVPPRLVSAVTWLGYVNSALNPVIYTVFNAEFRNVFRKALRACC
Protocol details: D4 receptor binding assay (3H-spiperone displacement)
Test parameters: 3H-spiperone 0.25 nM, HEK cell membranes, human D4.2; read-out: D4 RBA Ki
Endpoint: Ki (nM)

| Molecule | Unit abbrev | Ki |
| --- | --- | --- |
| Cl.c1ccc(CNCCCOc2cccc(-c3noc4ccsc34)c2)cc1 [Compound 1, hydrochloride] | nM | 12 |

1: COc1cccc(CNCCOc2cccc(-c3noc4ccsc34)c2)c1 [Compound 36]
2: Cc1ccc(CNCCCOc2cccc(-c3noc4ccsc34)c2)cc1 [Compound 39]
Incoming: Please indicate which entry, 1 or 2 , has the lower recorded Ki value. # answer = label of selected item
Outgoing: 1

====

System: human D4 receptor (D4.2 sub-type) (Homo sapiens, UniProt P21917, DEL271-302)
Protocol details: D4 receptor binding assay (3H-spiperone displacement)
Test parameters: @ 1 μM test compound; 3H-spiperone binding; read-out: D4 RBA % Inhibition (@ 1 μM)
Endpoint: inhibition at 1 µM (%)

1: Fc1ccccc1CNCCOc1cccc(-c2noc3ccsc23)c1 [Compound 34]
2: c1cc(OCCN2CCCCCCC2)cc(-c2noc3ccsc23)c1 [Compound 63]
Incoming: Please indicate which entry, 1 or 2 , has the lower recorded inhibition at 1 µM value. # answer = label of selected item
Outgoing: 2

a: c1cc(OCCCNC2CCc3ccccc32)cc(-c2noc3ccsc23)c1 (stereo not drawn) [Compound 43]
b: NS(=O)(=O)c1ccc(CCNCCCOc2cccc(-c3noc4ccsc34)c2)cc1 [Compound 15]
Incoming: Lab note: record which item had the higher inhibition at 1 µM, a or b . # answer = label of selected item
Outgoing: a
(a: 94%, b: 65%)

====

System: human D4 receptor (D4.2 sub-type) (Homo sapiens, UniProt P21917, DEL271-302)
Sequence (P21917 with tags, fused parts or gaps DEL271-302): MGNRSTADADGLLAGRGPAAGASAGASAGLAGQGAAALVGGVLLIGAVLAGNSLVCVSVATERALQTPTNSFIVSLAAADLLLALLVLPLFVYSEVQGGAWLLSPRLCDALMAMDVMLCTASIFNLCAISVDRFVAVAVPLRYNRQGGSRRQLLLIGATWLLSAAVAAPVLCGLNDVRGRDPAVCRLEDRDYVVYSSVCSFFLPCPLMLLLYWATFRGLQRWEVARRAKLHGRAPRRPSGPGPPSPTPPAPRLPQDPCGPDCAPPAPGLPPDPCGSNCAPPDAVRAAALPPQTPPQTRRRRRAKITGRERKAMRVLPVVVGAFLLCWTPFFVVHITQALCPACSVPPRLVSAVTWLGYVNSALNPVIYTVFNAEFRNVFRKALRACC
Protocol details: D4 receptor binding assay (3H-spiperone displacement)
Test parameters: @ 1 μM test compound; 3H-spiperone binding; read-out: D4 RBA % Inhibition (@ 1 μM)
Endpoint: inhibition at 1 µM (%)

| Molecule | Unit abbrev | inhibition at 1 µM |
| --- | --- | --- |
| c1cc(OCCN2CCc3ccccc3C2)cc(-c2noc3ccsc23)c1 [Compound 29] | % | 60 |
| c1cc(OCCNC2CCc3ccccc32)cc(-c2noc3ccsc23)c1 (centres unmarked) [Compound 38] | % | 95 |
| Fc1ccc(CNCCCOc2cccc(-c3noc4ccsc34)c2)c(F)c1 [Compound 55] | % | 92 |
| CC1CCN(CCOc2cccc(-c3noc4ccsc34)c2)CC1 [Compound 59] | % | 90 |
| c1cc(OCCCN2CCCCC2)cc(-c2noc3ccsc23)c1 [Compound 54] | % | 94 |
| c1cc(OCCN2CCCCCC2)cc(-c2noc3ccsc23)c1 [Compound 62] | % | 90 |
| c1cc(OCCN2CCCCC2)cc(-c2noc3ccsc23)c1 [Compound 48] | % | 83 |
| FC(F)(F)c1ccc(CNCCCOc2cccc(-c3noc4ccsc34)c2)cc1 [Compound 58] | % | 77 |
